Target: T1, cyIL-18Rβ-HisAvi (cynomolgus monkey)
T1 construct: Soluble analyte in SPR; also called cyno IL-18Rβ; cynomolgus monkey IL-18Rβ
T1 chain: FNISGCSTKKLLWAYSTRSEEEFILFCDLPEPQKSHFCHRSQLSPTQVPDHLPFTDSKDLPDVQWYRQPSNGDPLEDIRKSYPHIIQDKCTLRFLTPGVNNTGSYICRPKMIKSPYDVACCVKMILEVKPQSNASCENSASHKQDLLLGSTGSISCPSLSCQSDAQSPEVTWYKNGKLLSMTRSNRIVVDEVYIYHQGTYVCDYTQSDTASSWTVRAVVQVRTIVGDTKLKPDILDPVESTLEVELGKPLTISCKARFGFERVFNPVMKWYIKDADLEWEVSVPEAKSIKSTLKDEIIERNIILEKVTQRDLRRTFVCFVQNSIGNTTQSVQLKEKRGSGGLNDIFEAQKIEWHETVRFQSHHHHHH
Assay: SPR T200, mAb on anti-hFc, 37C, pH 6
endpoint name: kon (M⁻¹ s⁻¹)
# output: bare number, implied unit M⁻¹ s⁻¹

Use these answered entries as a reference point.
>  <binder>
P21 (antibody, human IgG1, kappa, V domains shown, Human IgG) VH: QVQLQQSGPGLVKPSETLSLTCTVSGGSISNYYWTWIRQPPGKGLEWIGYISDSGSTNYNPSLKSRVTISVDTSKNQFSLKLSSVTAADTAVYYCARETIVVRGFYFYVMDVWGQGTTVTVSS VL: AIQLTQSPSSLSASVGDRVTITCRASQGISSALAWYQQRPGKAPKLLIYDASNWESGVPSRFSGSGSGTDFTLTISSLQPEDFATYYCQQFNSYPWTFGQGTKVEIKR

>  <endpoint name>
kon

>  <result unit>
M⁻¹ s⁻¹

>  <observed measurement>
180000

$$$$
>  <binder>
P20-V1 (antibody, human IgG1, kappa, V domains shown, Variant of P20) VH: QVQLQESGPGLVKPSETLSLTCTVSGGSINNYYWSWIRQPPGKGLEWIGYIFYSGTTNYNPSLKSRVTISVDTSKNQFSLKLSSVTAADTAVYYCARDVGIAARNSYYYVMDVWGQGTTVTVSS VL: AIQLTQSPSSLSASVGDRVTITCRASQGISSALAWYQQKPGKAPKFLIYEASSLESGVPSRFSGSGSGTDFTLTISSLQPEDFATYYCQQFNSYPITFGQGTRLEIKR

>  <endpoint name>
kon

>  <result unit>
M⁻¹ s⁻¹

>  <observed measurement>
160000

$$$$
>  <binder>
P20-V2 (antibody, human IgG1, kappa, V domains shown, Variant of P20) VH: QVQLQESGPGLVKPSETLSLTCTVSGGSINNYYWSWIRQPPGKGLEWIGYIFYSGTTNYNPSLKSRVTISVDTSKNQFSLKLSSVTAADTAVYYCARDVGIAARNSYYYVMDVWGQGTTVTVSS VL: AIQLTQSPSSLSASVGDRVTITCRASQGISSALAWYQQKPGKAPKFLIYEGSSLESGVPSRFSGSGSGTDFTLTISSLQPEDFATYYCQQFNSYPITFGQGTRLEIKR

>  <endpoint name>
kon

>  <result unit>
M⁻¹ s⁻¹

>  <observed measurement>
160000

$$$$
>  <binder>
P20-V3 (antibody, human IgG1, kappa, V domains shown, Variant of P20) VH: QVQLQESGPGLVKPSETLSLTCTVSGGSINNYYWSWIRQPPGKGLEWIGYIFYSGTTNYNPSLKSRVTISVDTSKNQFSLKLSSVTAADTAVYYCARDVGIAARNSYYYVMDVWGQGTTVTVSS VL: AIQLTQSPSSLSASVGDRVTITCRASQGISSALAWYQQKPGKAPKFLIYGASSLESGVPSRFSGSGSGTDFTLTISSLQPEDFATYYCQQFNSYPITFGQGTRLEIKR

>  <endpoint name>
kon

>  <result unit>
M⁻¹ s⁻¹

>  <observed measurement>
180000

$$$$

Asked: Would you mind telling me what kon value was observed for P21-V1 (antibody, human IgG1, kappa, V domains shown, Variant of P21) VH: QVQLQESGPGLVKPSETLSLTCTVSGGSISNYYWTWIRQPPGKGLEWIGYISDSGSTNYNPSLKSRVTISVDTSKNQFSLKLSSVTAADTAVYYCARETIVVRGFYFYVMDVWGQGTTVTVSS VL: AIQLTQSPSSLSASVGDRVTITCRASQGISSALAWYQQKPGKAPKLLIYEASNWESGVPSRFSGSGSGTDFTLTISSLQPEDFATYYCQQFNSYPWTFGQGTKVEIKR ?
Given back: 250000
